Target: gp120 SHIV SF162 P3 (SHIV SF162 P3)
Assay: single-point ELISA at EC50 conc. of A-1
Observation Type: ELISA A450 (A450)
Give just the number in A450; leave the unit off.

Worked set:
1.34.35-1 (antibody, human IgG1, kappa, V domains shown) VH: QVQLVQSGAEVKKPGASVRVSCKASGYNIRDYFIHWWRQAPGQGLQWVGWINPKTGQPNNPRQFQGRVTLTRHASWDFDTFSFYMDLKALRSDDTAVYFCARQRTDYWDFDVWGSGTQVTVSS VL: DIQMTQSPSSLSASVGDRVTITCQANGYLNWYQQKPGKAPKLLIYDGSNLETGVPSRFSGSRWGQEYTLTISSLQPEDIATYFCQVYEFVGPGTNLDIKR : 0.56
1.13.17-1 (antibody, human IgG1, kappa, V domains shown) VH: QVQLLQSGAAVTKPGASVRVSCEASGYNIRDYFMHWVRQAPGQGLQWVGWINPKTGQPNNPRQFQGRVSLTRHASWDFDTFSFYMDLKALRSDDTAVYFCARQRSDYWDFDVWGSGTQVTVSS VL: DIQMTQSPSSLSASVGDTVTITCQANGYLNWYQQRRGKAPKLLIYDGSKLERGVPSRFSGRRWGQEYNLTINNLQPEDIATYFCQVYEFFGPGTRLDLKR : 0.69
1.32.35-1 (antibody, human IgG1, kappa, V domains shown) VH: QVQLVQSGAEVTKPGASVRVSCEASGYNIRDYFIHWWRQAPGQGLQWVGWINPKTGQPNNPRQFQGRVSLTRHASWDFDTFSFYMDLKALRSDDTAVYFCARQRTDYWDFDVWGSGTQVTVSS VL: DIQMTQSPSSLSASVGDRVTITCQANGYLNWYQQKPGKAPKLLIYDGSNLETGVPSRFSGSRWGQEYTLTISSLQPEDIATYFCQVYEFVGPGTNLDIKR : 0.5
1.36.35-1 (antibody, human IgG1, kappa, V domains shown) VH: QVQLVQSGAEVKKPGASVRVSCKASGYNIRDYFMHWWRQAPGQGLQWVGWINPKTGQPNNPRQFQGRVTMTRHASWDFDTFSAYMDLSRLRSDDTATYFCARQRTDYWDFDVWGQGTMVTVSS VL: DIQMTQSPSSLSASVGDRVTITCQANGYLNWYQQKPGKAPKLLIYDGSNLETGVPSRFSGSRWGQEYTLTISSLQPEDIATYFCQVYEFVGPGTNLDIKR : 0.16

Turning now to a further record.
stdin: Would you kindly share the measured ELISA A450 for 1.1.35-1 (antibody, human IgG1, kappa, V domains shown) VH: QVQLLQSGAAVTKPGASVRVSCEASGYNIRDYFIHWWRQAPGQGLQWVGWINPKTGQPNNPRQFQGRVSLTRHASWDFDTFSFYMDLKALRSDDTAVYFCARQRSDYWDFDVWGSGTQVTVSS VL: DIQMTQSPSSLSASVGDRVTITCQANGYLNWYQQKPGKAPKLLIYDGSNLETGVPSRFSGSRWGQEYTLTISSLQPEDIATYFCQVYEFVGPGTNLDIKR ?
stdout: 0.72
